Ref: patent US20230055005A1

# measurement target: T1, Bi-SEQ ID NO: 1, *H**Glu(Bi-PEG)*NLERECVEETCSYEEA*NH2 (disulfide 6-11 (inferred))
# T1 construct: Synthetic peptide
# T1 peptide: {Glu(Bi-PEG)}-NLERECVEETCSYEEA-NH2
# experimental details: ECL assay (Elecsys 2010), ruthenylated antibody and biotinylated peptide, streptavidin beads
Bridge positions count the residues as written; N and C are the ends. Glu(Bi-PEG) = N-terminal added Glu carrying a biotin-linker
value type: reactivity (signal normalized to Bi-SEQ ID NO:1) (%)
The reply should be a number in %, with the unit left off.

INPUT: Item monoclonal anti-PIVKA-II antibody 9A6 (antibody, V domains shown, Recombinant rabbit IgG from B-cell cloning, expressed in HEK cells) VH: QSVEESGGRLITPGTPLTLTCTVSGFDLSRYAVGWVRQAPGKGLEYIGLIVSDGRTYYASWAKGRFTVSKTSSTTVDLKMTSPTAGDTATYYCYRNVSLWGQGTLVSVSS VL: DVVMTQTPSSVEAAVGGTVTIKCQASQSIGSNLAWYQQKPGQPPKLLIYSASTLASGVPSRFSGSGSGTEFTLTFSGVQCGDAATYFCQSYAGVSANIFYYSFGGGTEVVVM has what recorded reactivity (signal normalized to Bi-SEQ ID NO:1)?
OUTPUT: 100
